Sourced from patent US20220119513A1

target: T1, TGFβ1 (R&D Systems); assay: SPR full titration
T1 construct: also called TGFB1
T1 sequence (P01137 279-390): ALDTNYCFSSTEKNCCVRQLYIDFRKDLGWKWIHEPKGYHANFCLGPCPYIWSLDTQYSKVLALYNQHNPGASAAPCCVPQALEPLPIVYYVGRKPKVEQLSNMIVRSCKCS
pKd: −log10 of the molar value.
Metric: pKd

Binder	Metric	Numeric value
Can-SL501-VH3 D108K / Can-SL501-VL2 (antibody, V domains shown) VH: EVQLVESGGDLVKPGGSLRLSCVASGFTFSSYGMHWVRQAPGKELEWVAVISYDGSIKYYADAVKGRFTISRDNAKNTLYLQMNSLRAEDTAVYYCARTGEYSGYDTKPQYSWGQGTTVTVSS VL: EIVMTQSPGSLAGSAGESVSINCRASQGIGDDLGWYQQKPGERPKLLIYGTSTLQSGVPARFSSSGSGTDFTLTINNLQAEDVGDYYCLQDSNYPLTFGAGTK	pKd	10.46
Can-SL501-VH3 P109T / Can-SL501-VL2 (antibody, V domains shown) VH: EVQLVESGGDLVKPGGSLRLSCVASGFTFSSYGMHWVRQAPGKELEWVAVISYDGSIKYYADAVKGRFTISRDNAKNTLYLQMNSLRAEDTAVYYCARTGEYSGYDTDTQYSWGQGTTVTVSS VL: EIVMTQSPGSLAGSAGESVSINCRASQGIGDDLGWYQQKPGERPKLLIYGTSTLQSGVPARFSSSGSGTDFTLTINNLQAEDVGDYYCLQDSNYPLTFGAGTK	pKd	10.08
Can-SL501-VH3 Q110D / Can-SL501-VL2 (antibody, V domains shown) VH: EVQLVESGGDLVKPGGSLRLSCVASGFTFSSYGMHWVRQAPGKELEWVAVISYDGSIKYYADAVKGRFTISRDNAKNTLYLQMNSLRAEDTAVYYCARTGEYSGYDTDPDYSWGQGTTVTVSS VL: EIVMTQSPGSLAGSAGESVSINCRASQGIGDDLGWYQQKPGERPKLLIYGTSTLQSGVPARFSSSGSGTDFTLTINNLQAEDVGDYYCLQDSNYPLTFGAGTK	pKd	10.30
Can-SL501-VH3 P109A / Can-SL501-VL2 (antibody, V domains shown) VH: EVQLVESGGDLVKPGGSLRLSCVASGFTFSSYGMHWVRQAPGKELEWVAVISYDGSIKYYADAVKGRFTISRDNAKNTLYLQMNSLRAEDTAVYYCARTGEYSGYDTDAQYSWGQGTTVTVSS VL: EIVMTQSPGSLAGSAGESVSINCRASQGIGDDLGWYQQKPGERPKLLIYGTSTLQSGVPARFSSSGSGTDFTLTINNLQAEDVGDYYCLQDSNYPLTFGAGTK	pKd	9.87
